# Tested on: Fibroblast
# PROTOCOL_DETAILS: Multiplex assay against human fibroblast
# Type: toxicity, cell-based
# CONDITION_DESCRIPTION: 24 h, 1 µM, compound concentration 1 uM, replicate 1
READOUT_NAME: Population Mitotic Cells (%)
Numeric answer only, unit % assumed.

- COMPOUND: "Cc1c(Cc2ccc3ccccc3n2)c2cc(F)ccc2n1CC(=O)O [TIMAPIPRANT]"
  MEASUREMENT_TARGET: "Fibroblast"
  UNIT_LABEL: "%"
  DATA_VALUE: 66

Fill blank: measured Population Mitotic Cells (%) of the compound `Cc1nn(C)c2nc(NNC(=O)Nc3cc(Cl)nc(Cl)c3)cc(C(C)C)c12` is ____.
40

Would you kindly repeat that for CN1C[C@H](C(=O)N[C@]2(C)O[C@@]3(O)[C@@H]4CCCN4C(=O)[C@H](Cc4ccccc4)N3C2=O)C[C@@H]2c3cccc4[nH]cc(c34)C[C@H]21.CS(=O)(=O)O [DIHYDROERGOTAMINE MESYLATE] ?
61

Would you kindly repeat that for `CC(C)(O)C(=O)N1CCN(c2ccc(C(F)(F)F)c(C3=C(c4c[nH]c5ccccc45)C(=O)NC3=O)c2)CC1` ?
50

Would you kindly repeat that for `CC(F)(F)CN1CCOc2c(nn(-c3ccccc3Cl)c2-c2ccc(Cl)cc2)C1=O` ?
38

Would you kindly repeat that for `COc1cc2nc(N3CCN(C(=O)COc4c(OC)cccc4C(C)C)CC3)nc(N)c2cc1OC.Cl.Cl` ?
31

Would you kindly repeat that for CC(C)C[C@H](CO)Nc1nc(S[C@@H](C)c2ccccc2)nc2nc(N)sc12 [AZD-8797] ?
55

Would you kindly repeat that for Cc1ccc(OCC(O)C(C)NC(C)C)c2c1CCC2.Cl (stereo not drawn) ?
42

* * *

# Tested on: Fibroblast
# PROTOCOL_DETAILS: Multiplex assay against human fibroblast
# Assay type: toxicity, cell-based
# CONDITION_DESCRIPTION: 48 h, 1 µM, compound concentration 1 uM, replicate 2
Some compounds, each annotated with its measured Population Hoechst High Intensity Objects (%).
Numeric answer only, unit % assumed.

Fill blank: measured Population Hoechst High Intensity Objects (%) of the compound `Nc1nc(-c2ccco2)c2cnn(Cc3ccccc3F)c2n1` is ____.
6

Would you kindly repeat that for COCCCN1CCC(NC(=O)c2cc(Cl)c(N)c3c2OCC3)CC1 [PRUCALOPRIDE] ?
2

Would you kindly repeat that for `C=CCN1C[C@H](C(=O)N(CCCN(C)C)C(=O)NCC)C[C@@H]2c3cccc4[nH]cc(c34)C[C@H]21` ?
7

Would you kindly repeat that for `Cc1c(Cc2ccc3ccccc3n2)c2cc(F)ccc2n1CC(=O)O` ?
6

Would you kindly repeat that for `COc1cc2nc(N3CCN(C(=O)COc4c(OC)cccc4C(C)C)CC3)nc(N)c2cc1OC.Cl.Cl` ?
10

Would you kindly repeat that for `OCCCNc1cc(-c2ccnc(Nc3cccc(Cl)c3)n2)ccn1` ?
7

* * *

Some molecules, each annotated with its measured Total Cell Count.
# System: Fibroblast
# PROTOCOL_DETAILS: Multiplex assay against human fibroblast
# Assay type: toxicity, cell-based
# CONDITION_DESCRIPTION: 24 h, 1 µM, compound concentration 1 uM, replicate 1
Non-standard residues stand in square brackets, D forms with d. Residues, ends and D or L forms follow the SMILES beside them.
# print the numeric value only

Would you please look over these solved cases?
- MOLECULE: "Cc1sc2c(c1C)C(c1ccc(Cl)cc1)=N[C@H](CC(=O)OC(C)(C)C)c1nnc(C)n1-2"
  Total Cell Count: 186
- MOLECULE: "COc1ccc2[nH]c(I)c(CCNC(C)=O)c2c1 [IODOMELATONIN]"
  Total Cell Count: 134
- MOLECULE: "CC(C)C[C@@H]1NC(=O)[C@@H](C(C)C)NC(=O)[C@@H]2CCCN2C(=O)[C@@H](CC(=O)O)NC(=O)[C@@H](Cc2c[nH]c3ccccc23)NC1=O [BQ-123] (cyclo(L[dW][dD]P[dV]))"
  Total Cell Count: 107
- MOLECULE: "CN1CCN2c3ccccc3Cc3ccccc3C2C1.Cl (stereo unspecified) [MIANSERIN HYDROCHLORIDE]"
  Total Cell Count: 143
- MOLECULE: "Cc1cc(-c2ccc3c(c2)CC[C@H]3N2CC3(CCN(C(=O)Cc4cn5cc(C)sc5n4)CC3)C2)ncn1 [PF-5190457]"
  Total Cell Count: 141
- MOLECULE: "CCCCC[C@H](O)/C=C/[C@H]1[C@H](O)CC(=O)[C@@H]1CCCCCCC(=O)O [ALPROSTADIL]"
  Total Cell Count: 147

Fill blank: measured Total Cell Count of the molecule CC(C)(C)c1ccc(CSc2cnn(C(C)(C)C)c(=O)c2Cl)cc1 [PYRIDABEN] is ____.
148

Would you kindly repeat that for Cc1cc(NC(=O)NCCN2CCC(O)(Cc3ccccc3)CC2)c2ccccc2n1 [PALOSURAN] ?
129

Would you kindly repeat that for `Cc1cc(=O)n(C)c2cc(N3C(=O)CC[C@H](NS(=O)(=O)CC(C)C)[C@H]3c3ccc(Cl)cc3)ccc12` ?
140

Would you kindly repeat that for `CN1CCN(c2ccc(Nc3c4ccccc4nc4ccccc34)cc2)CC1.Cl.Cl.O` ?
139

Would you kindly repeat that for O=c1ccc2ccc(OCCCCN3CCN(c4cccc5sccc45)CC3)cc2[nH]1 [BREXPIPRAZOLE] ?
122

Would you kindly repeat that for CN1C[C@H](C(=O)N[C@]2(C)O[C@@]3(O)[C@@H]4CCCN4C(=O)[C@H](Cc4ccccc4)N3C2=O)C[C@@H]2c3cccc4[nH]cc(c34)C[C@H]21.CS(=O)(=O)O [DIHYDROERGOTAMINE MESYLATE] ?
130

Would you kindly repeat that for `COc1cc(OC2CCN(C(C)=O)CC2)ccc1C(=O)N1CCC(N2C(=O)OCc3ccccc32)CC1` ?
170

Would you kindly repeat that for CSc1nc(NC2CCCC2)c([N+](=O)[O-])c(NC2CCCC2)n1 [GS-39783] ?
132

Would you kindly repeat that for O=C(NCCNCC(O)COc1ccc(O)cc1)N1CCOCC1.O=C(NCCNCC(O)COc1ccc(O)cc1)N1CCOCC1.O=C(O)/C=C/C(=O)O (stereo unspecified) [XAMOTEROL FUMARATE] ?
121

Would you kindly repeat that for `Cn1cc(C(=O)OCC2CCN(CCNS(C)(=O)=O)CC2)c2ccccc21` ?
201

* * *

# Test system: HEK-293T
# PROTOCOL_DETAILS: Multiplex assay against HEK293T
# Type: toxicity, cell-based
# CONDITION_DESCRIPTION: human, 12 h, 10 µM, compound concentration 10 uM, replicate 2
Some molecules, each annotated with its measured Population Apoptotic (%).

Would you please look over these solved cases?
- MOLECULE: "Cc1cc(=O)n(C)c2cc(N3C(=O)CC[C@H](NS(=O)(=O)CC(C)C)[C@H]3c3ccc(Cl)cc3)ccc12"
  MEASUREMENT_TARGET: "HEK-293T"
  Population Apoptotic (%): "50%"
- MOLECULE: "S=C(NCCCc1c[nH]cn1)NCCCN(Cc1ccc(Cl)c(Cl)c1)c1ccc(Br)cn1"
  MEASUREMENT_TARGET: "HEK-293T"
  Population Apoptotic (%): "77%"
- MOLECULE: "CC(C)(C)c1ccc(CSc2cnn(C(C)(C)C)c(=O)c2Cl)cc1"
  MEASUREMENT_TARGET: "HEK-293T"
  Population Apoptotic (%): "62%"
- MOLECULE: "C[C@@H]1CC(=O)Nc2cccc(-c3ccc4c(c3)c(-c3cnn(C)c3)nn4C)c2N1"
  MEASUREMENT_TARGET: "HEK-293T"
  Population Apoptotic (%): "38%"
- MOLECULE: "C=CCN1C[C@H](C(=O)N(CCCN(C)C)C(=O)NCC)C[C@@H]2c3cccc4[nH]cc(c34)C[C@H]21"
  MEASUREMENT_TARGET: "HEK-293T"
  Population Apoptotic (%): "60%"

Fill blank: measured Population Apoptotic (%) of the molecule `O=c1ccc2ccc(OCCCCN3CCN(c4cccc5sccc45)CC3)cc2[nH]1` is ____.
85%

Would you kindly repeat that for `Cc1cc(O)c(-c2ccc([C@@H](C)CN(C)C)cc2)c2c1[nH]c(=O)c1sccc12` ?
70%

Would you kindly repeat that for `Cc1c(Cc2ccc3ccccc3n2)c2cc(F)ccc2n1CC(=O)O` ?
33%

Would you kindly repeat that for `Cc1cc(NC(=O)NCCN2CCC(O)(Cc3ccccc3)CC2)c2ccccc2n1` ?
61%

Would you kindly repeat that for `CSc1nc(NC2CCCC2)c([N+](=O)[O-])c(NC2CCCC2)n1` ?
40%

* * *

Some molecules, each annotated with its measured Population Apoptotic (%).
# Test system: U2OS
# PROTOCOL_DETAILS: Multiplex assay against U2OS
# Assay type: toxicity, cell-based
# CONDITION_DESCRIPTION: human, 24 h, 1 µM, compound concentration 1 uM, replicate 2
Mention the unit after the number when you answer.

Would you please look over these solved cases?
- MOLECULE: "Cl.Cl.OCCOCCN1CCN(C(c2ccccc2)c2ccc(Cl)cc2)CC1 (centres undefined) [HYDROXYZINE HYDROCHLORIDE]"
  MEASUREMENT_TARGET: "U2OS"
  Population Apoptotic (%): "77%"
- MOLECULE: "O=C(O)CCC/C=C\\CC1C(O)CC(O)C1/C=C/C(O)COc1cccc(Cl)c1 (centres undefined) [CLOPROSTENOL]"
  MEASUREMENT_TARGET: "U2OS"
  Population Apoptotic (%): "75%"
- MOLECULE: "Cc1sc2c(c1C)C(c1ccc(Cl)cc1)=N[C@H](CC(=O)OC(C)(C)C)c1nnc(C)n1-2"
  MEASUREMENT_TARGET: "U2OS"
  Population Apoptotic (%): "75%"
- MOLECULE: "COc1cc2nc(N3CCN(C(=O)c4ccco4)CC3)nc(N)c2cc1OC.Cl [PRAZOSIN HYDROCHLORIDE]"
  MEASUREMENT_TARGET: "U2OS"
  Population Apoptotic (%): "100%"
- MOLECULE: "Cc1ccc(OCC(O)C(C)NC(C)C)c2c1CCC2.Cl (centres undefined)"
  MEASUREMENT_TARGET: "U2OS"
  Population Apoptotic (%): "93%"
- MOLECULE: "COC(c1ccccc1)(c1ccccc1)[C@H](Oc1nc(C)cc(C)n1)C(=O)O [AMBRISENTAN]"
  MEASUREMENT_TARGET: "U2OS"
  Population Apoptotic (%): "100%"
- MOLECULE: "Cc1nn(C)c2nc(NNC(=O)Nc3cc(Cl)nc(Cl)c3)cc(C(C)C)c12"
  MEASUREMENT_TARGET: "U2OS"
  Population Apoptotic (%): "93%"
- MOLECULE: "COc1cc(OC2CCN(C(C)=O)CC2)ccc1C(=O)N1CCC(N2C(=O)OCc3ccccc32)CC1"
  MEASUREMENT_TARGET: "U2OS"
  Population Apoptotic (%): "76%"

Would you kindly look at the next entry?
Fill blank: measured Population Apoptotic (%) of the molecule CN(C)C/C=C/C(=O)Nc1ccc(C(=O)N2CCCC(Nc3ncc(Cl)c(-c4c[nH]c5ccccc45)n3)C2)cc1 (centres undefined) is ____.
100%
